# test: Solubility in water
# Type: physicochemical
measurement name: solubility

Query block: # solubility lookup, item COc1cc(OC)cc(N2CCN(C(=O)Nc3nc4cc(F)ccc4nc3OC)CC2)c1 [Compound A]
Result block: < 0.1 µg/mL
